tested on: S. enterica typhimurium WT; test: growth AUC normalised to DMSO control (median) (fraction of control); higher = less growth inhibition, active = hit call of the paper; conditions: 20 µM
Structures can show the parent of a compound that is named as a salt.
Hi! Could you answer with just one of these? label 1 for active, label 0 for inactive

| Molecule | Group Label |
| --- | --- |
| Nc1ccc(S(=O)(=O)c2ccc(N)cc2)cc1 [Dapsone] | label 0 |
| C#CCN(C)CCCOc1ccc(Cl)cc1Cl [Clorgyline hydrochloride] | label 0 |
| CC1=C(/C=C/C(C)=C/C=C/C(C)=C/C(=O)O)C(C)(C)CCC1 [Retinoic acid] | label 0 |
| CC(C)NC[C@H](O)COc1cccc2ccccc12 [(S)-(-)-Propranolol hydrochloride] | label 0 |
| CC(=O)CC(c1ccccc1)c1c(O)c2ccccc2oc1=O (stereo not given) [Warfarin] | label 0 |
| CCCCOc1ccc(CC(=O)NO)cc1 [Bufexamac] | label 0 |

Query molecule follows.
I would be grateful if you could indicate the recorded call for COc1ccc(C[C@@H]2c3cc(OC)c(OC)cc3CC[N@+]2(C)CCC(=O)OCCCCCOC(=O)CC[N@@+]2(C)CCc3cc(OC)c(OC)cc3[C@H]2Cc2ccc(OC)c(OC)c2)cc1OC [Cisatracurium besylate] .
label 0

---

tested on: Shigella flexneri; test: growth AUC normalised to DMSO control (fraction of control); higher = less growth inhibition, active = hit call of the paper; conditions: 20 µM
Structures can show the parent of a compound that is named as a salt.
Listed here are molecules together with their documented growth AUC normalised to DMSO control.
Lab note: write the figure by itself, no unit.

Worked examples, 5 molecules total:
| Molecule | Tested System | Property Name | Experimental Value |
| --- | --- | --- | --- |
| CC(C)(C)c1ccc(C(O)CCCN2CCC(C(O)(c3ccccc3)c3ccccc3)CC2)cc1 (configuration not stated) | Shigella flexneri | growth AUC normalised to DMSO control | 0.999 |
| OCCN1CCN(CCCN2c3ccccc3Sc3ccc(Cl)cc32)CC1 | Shigella flexneri | growth AUC normalised to DMSO control | 0.975 |
| CC[C@@H]1C(=O)OC[C@@H]1Cc1cncn1C [Pilocarpine nitrate] | Shigella flexneri | growth AUC normalised to DMSO control | 1 |
| CCCCN1CCCCC1C(=O)Nc1c(C)cccc1C (configuration not stated) [Bupivacaine hydrochloride] | Shigella flexneri | growth AUC normalised to DMSO control | 0.973 |
| COc1ccccc1N1CCN(CCCNc2cc(=O)n(C)c(=O)n2C)CC1 [Urapidil hydrochloride] | Shigella flexneri | growth AUC normalised to DMSO control | 0.992 |

Check the records and state growth AUC normalised to DMSO control for CC=C(C)C(=O)OC1C(OC(C)=O)C2(CO)C(O)CC3(C)C(=CCC4C5(C)CCC(OC6OC(C(=O)O)C(OC7OC(CO)C(O)C(O)C7O)C(O)C6OC6OC(CO)C(O)C(O)C6O)C(C)(CO)C5CCC43C)C2CC1(C)C (configuration not stated)
1

Check the records and state growth AUC normalised to DMSO control for CC[N+](CC)(CC)CCC(O)(c1ccccc1)C1CCCCC1 (configuration not stated) [Tridihexethyl chloride]
1.03

---

test system: P. vulgatus WT; experiment: growth AUC normalised to DMSO control (median) (fraction of control); higher = less growth inhibition, active = hit call of the paper; conditions: 20 µM
Where a name gives a salt, the structure may show the parent alone.
Property Name: growth AUC normalised to DMSO control
Lab note: write the figure by itself, no unit.

| Compound | Experimental Value |
| --- | --- |
| CCCCOC(=O)c1ccccc1Nc1cccc(C(F)(F)F)c1 [Ufenamate] | 0.978 |
| N=C(N)N/N=C/c1c(Cl)cccc1Cl [Guanabenz acetate] | 0.98 |
| O=c1oc2cc(O)ccc2s1 [Tioxolone] | 1.02 |
| C#C[C@]1(O)CC[C@H]2[C@@H]3[C@H](C)CC4=C(CCC(=O)C4)[C@H]3CC[C@@]21C [Tibolone] | 0.994 |
| O=P(O)(O)C(O)(Cc1cccnc1)P(=O)(O)O [Risedronic acid monohydrate] | 0.999 |

Check the records and state growth AUC normalised to DMSO control for CCN(CC)C(=O)C1(c2ccccc2)CC1CN (configuration not stated) [Milnacipran hydrochloride]
1.01

Check the records and state growth AUC normalised to DMSO control for CN(C)[C@@H]1C(=O)C(C(N)=O)=C(O)[C@@]2(O)C(=O)C3=C(O)c4c(O)ccc(Cl)c4[C@@H](O)[C@H]3C[C@@H]12 [Demeclocycline hydrochloride]
0.0137

---

Listed here are compounds together with their documented growth AUC normalised to DMSO control.
test system: P. vulgatus WT; experiment: growth AUC normalised to DMSO control (median) (fraction of control); higher = less growth inhibition, active = hit call of the paper; conditions: 20 µM
Structures can show the parent of a compound that is named as a salt.
Lab note: write the figure by itself, no unit.

Worked examples, 5 compounds total:
| Compound | Tested System | growth AUC normalised to DMSO control |
| --- | --- | --- |
| O=c1[nH]c(=O)n(C2CCCO2)cc1F (stereo not drawn) [Tegafur] | P. vulgatus WT | 1.01 |
| CSc1nc2cc(Cl)c(Oc3cccc(Cl)c3Cl)cc2[nH]1 [Triclabendazole] | P. vulgatus WT | 0.129 |
| CN(CCOc1ccc(CC2SC(=O)NC2=O)cc1)c1ccccn1 (stereo not drawn) [Rosiglitazone hydrochloride] | P. vulgatus WT | 1.04 |
| Clc1ccc(C(Cn2ccnc2)OCc2csc3c(Cl)cccc23)c(Cl)c1 (stereo not drawn) [Sertaconazole nitrate] | P. vulgatus WT | 1.01 |
| CN1CCc2c(c3ccccc3n2Cc2ccccc2)C1 [Mebhydroline 1,5-naphtalenedisulfonate] | P. vulgatus WT | 0.971 |

Please tell me the measured growth AUC normalised to DMSO control for N=C(N)NCc1cccc(I)c1 [Iobenguane sulfate] ; system: P. vulgatus WT.
1.1

Please tell me the measured growth AUC normalised to DMSO control for COc1ccccc1N1CCN(CCCCNC(=O)c2ccc3ccccc3c2)CC1 ; system: P. vulgatus WT.
1.08

---

system: P. vulgatus RND KO; experiment: growth AUC normalised to DMSO control (median) (fraction of control); higher = less growth inhibition, active = hit call of the paper; conditions: 20 µM
Counter-ions that a name gives are not always drawn.
Property Name: growth AUC normalised to DMSO control
Lab note: write the figure by itself, no unit.

Worked examples, 8 molecules total:
| Molecule | growth AUC normalised to DMSO control |
| --- | --- |
| CCCC(CCC)C(=O)O[C@H]1C[C@H]2CC[C@@H](C1)[N+]2(C)C [Anisotropine Methylbromide] | 1.09 |
| O=C(O)c1cc(-c2ccc(F)cc2F)ccc1O | 0.999 |
| C[C@]12CCC(=O)C=C1C=C[C@@H]1[C@@H]2CC[C@@]2(C)[C@H]1CC[C@@]21CCC(=O)O1 | 1.07 |
| CC(C)c1c(C(=O)Nc2ccccc2)c(-c2ccccc2)c(-c2ccc(F)cc2)n1CC[C@@H](O)C[C@@H](O)CC(=O)O | 1.01 |
| Cn1cc([S+](C)[O-])c(=O)c2ccc(F)cc21 (stereo unspecified) | 1.04 |
| c1ccc2[nH]c(-c3cscn3)nc2c1 | 0.971 |
| CN(C)CCCN1c2ccccc2Sc2ccc(Cl)cc21 [Chlorpromazine hydrochloride] | 0.924 |
| CCN1CCN(C(=O)N[C@@H](C(=O)N[C@@H]2C(=O)N3C(C(=O)O)=C(CSc4nnnn4C)CS[C@H]23)c2ccc(O)cc2)C(=O)C1=O [Cefoperazone dihydrate] | 0.00991 |

Check the records and state growth AUC normalised to DMSO control for CC(C)c1nc(N(C)S(C)(=O)=O)nc(-c2ccc(F)cc2)c1/C=C/[C@@H](O)C[C@@H](O)CC(=O)O
1.01

Check the records and state growth AUC normalised to DMSO control for Cc1cccc(Nc2ccccc2C(=O)O)c1C
0.958

---

test system: S. enterica typhimurium WT; experiment: growth AUC normalised to DMSO control (median) (fraction of control); higher = less growth inhibition, active = hit call of the paper; conditions: 20 µM
Counter-ions that a name gives are not always drawn.
Property Name: growth AUC normalised to DMSO control
Lab note: write the figure by itself, no unit.

| Compound | growth AUC normalised to DMSO control |
| --- | --- |
| NCCc1c[nH]cn1 [Histamine dihydrochloride] | 1 |

Check the records and state growth AUC normalised to DMSO control for CNC(=C[N+](=O)[O-])NCCSCc1ccc(CN(C)C)o1 [Ranitidine hydrochloride]
1.02

Check the records and state growth AUC normalised to DMSO control for CN(C)CCCN1c2ccccc2CCc2ccc(Cl)cc21 [Clomipramine hydrochloride]
1.01

Check the records and state growth AUC normalised to DMSO control for N=c1nc(N2CCCCC2)cc(N)n1O
0.981

Check the records and state growth AUC normalised to DMSO control for Cc1cccc(C)c1NC(=O)CC12CCCN1CCC2 [Pilsicainide Hydrochloride]
1

Check the records and state growth AUC normalised to DMSO control for CCCc1cc(C(N)=S)ccn1 [Prothionamide]
0.987

Check the records and state growth AUC normalised to DMSO control for O=C1CC2(CCCC2)CC(=O)N1CCCCN1CCN(c2ncccn2)CC1 [Buspirone hydrochloride]
0.986
